Data provenance: patent US8852554B2

Target: Rat recombinant PDE10A (rPDE10A) (Rattus norvegicus, UniProt Q9QYJ6)
Sequence (Q9QYJ6 whole entry): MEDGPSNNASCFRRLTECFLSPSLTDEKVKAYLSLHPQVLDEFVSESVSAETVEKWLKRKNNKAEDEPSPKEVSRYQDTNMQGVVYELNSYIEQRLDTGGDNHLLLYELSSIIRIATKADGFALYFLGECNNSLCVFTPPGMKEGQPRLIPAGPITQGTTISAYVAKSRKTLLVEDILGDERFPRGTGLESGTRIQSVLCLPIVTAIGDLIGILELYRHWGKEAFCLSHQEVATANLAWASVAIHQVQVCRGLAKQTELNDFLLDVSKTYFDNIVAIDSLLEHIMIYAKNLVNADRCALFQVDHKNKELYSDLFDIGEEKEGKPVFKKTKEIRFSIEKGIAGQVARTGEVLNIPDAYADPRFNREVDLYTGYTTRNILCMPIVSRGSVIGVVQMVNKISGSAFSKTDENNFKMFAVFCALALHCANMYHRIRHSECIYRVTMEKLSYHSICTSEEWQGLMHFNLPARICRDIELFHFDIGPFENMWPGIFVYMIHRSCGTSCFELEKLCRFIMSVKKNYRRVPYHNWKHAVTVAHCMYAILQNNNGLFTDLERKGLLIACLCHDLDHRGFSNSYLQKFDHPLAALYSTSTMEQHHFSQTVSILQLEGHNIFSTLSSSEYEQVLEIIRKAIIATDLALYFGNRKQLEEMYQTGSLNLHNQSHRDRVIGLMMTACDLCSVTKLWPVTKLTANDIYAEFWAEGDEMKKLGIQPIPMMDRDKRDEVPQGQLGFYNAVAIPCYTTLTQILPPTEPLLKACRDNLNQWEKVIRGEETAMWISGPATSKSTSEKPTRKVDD
Test: rat PDE10A2-cAMP inhibition, in vitro SPA assay
Settings: 60 nM cAMP substrate
pIC50: −log10 of the molar value.
Mark false for pIC50 values under 8, and true for everything at or above.

smilesEntry: COc1cccnc1COc1ccc(-c2nn(CCF)cc2-c2ccncc2)cc1
target: Rat recombinant PDE10A (rPDE10A) (Rattus norvegicus, UniProt Q9QYJ6)
answerLabel: true
--
smilesEntry: FCCCn1cc(-c2ccncc2)c(-c2ccc(OCc3ccc(OCCF)cn3)cc2)n1
target: Rat recombinant PDE10A (rPDE10A) (Rattus norvegicus, UniProt Q9QYJ6)
answerLabel: false
--
smilesEntry: FCCn1cc(-c2ccncc2)c(-c2ccc(OCc3cccc(C4CC4)n3)cc2)n1
target: Rat recombinant PDE10A (rPDE10A) (Rattus norvegicus, UniProt Q9QYJ6)
answerLabel: false
--
smilesEntry: COc1ccc(COc2ccc(-c3nn(CCF)cc3-c3ccncc3)cc2)nc1
target: Rat recombinant PDE10A (rPDE10A) (Rattus norvegicus, UniProt Q9QYJ6)
answerLabel: true

Here is the next item to consider.
// inclusive: pIC50 at least 8? input: `COc1cccc(COc2ccc(-c3nn(CCF)cc3-c3ccncc3)cc2)n1`
true
